Attribute: GI50
- System: OVCAR-3
- Protocol Description: NCI tumour cell line growth inhibition, 48 h
Calls of active or inactive are those of the source. Cut-off read from the data, not from the text of the source: active = GI50 up to about 1.1 µM and inactive = higher.

Cc1cc2nc3c(C(O)CO)nn(-c4ccccc4)c3nc2cc1C (stereo unspecified) : 15.8 µM (inactive)
Clc1cc(Cl)cc(/C=N/C23CC4CC(CC(C4)C2)C3)c1 : > 10 µM (inactive)
COc1ccc(CCn2c(=O)c3ccccc3n(C)c2=O)cc1 : 34.4 µM (inactive)
O=C1c2cc3c(cc2CC12Cc1ccc4c(c1C2=O)CCC4)CCCC3 (stereo unspecified) : > 100 µM (inactive)
N#C/C(C(=S)NCc1ccccc1)=C(/N)N1CCCC1 : > 100 µM (inactive)

# context switch: different compound, same GI50
Task: Requested field: GI50. Item: `COc1ccc2c(c1)c1c(n2CCN2CCOCC2)-c2cccc(OC)c2CC1`
Output: 52.7 µM (inactive)

###

- Tested on: UACC-257
- Protocol Description: NCI tumour cell line growth inhibition, 48 h
The source made the active and inactive calls. Cut-off read from the data, not from the text of the source: active = GI50 up to about 1.1 µM and inactive = higher.
Property Label: GI50

O=c1cc(N2CCCC2)[nH]c(=O)n1-c1ccc(Cl)cc1 : > 100 µM (inactive)
c1coc(-c2nccc3c2[nH]c2ccccc23)c1 : > 100 µM (inactive)
N=c1oc2ccccc2cc1C(=O)Nc1ccccn1 : > 100 µM (inactive)
CCOc1ccccc1NC(=O)C(=O)C(/C(=N/N)C(=O)OC)c1nc2ccc([N+](=O)[O-])cc2nc1O (centres undefined) : > 100 µM (inactive)
COc1ccc(NC(=S)c2ccc([N+](=O)[O-])o2)cc1 : 2.7 µM (inactive)
COC(=O)/C=C(/C=C1/C(C#N)=C(N)N(c2ccc(Cl)cc2)C1(C)/C(=C\C(=O)OC)C(=O)OC)C(=O)OC (centres undefined) : 18.9 µM (inactive)

Task: Which GI50 is reported for this compound? COCCN(C(=O)c1ccccc1)C1CCC(=O)c2[nH]c3ccccc3c21 (centres undefined)
Output: > 46.9 µM (inactive)

Task: And for `O=S(=O)(O)c1cc(O)c(/N=N\C2S(=O)(=O)OCCOS2(=O)=O)c2ccccc12` ?
Output: > 100 µM (inactive)

###

- System: SNB-75
- Protocol Description: NCI tumour cell line growth inhibition, 48 h
The source made the active and inactive calls. Rule as the data show it: active = GI50 up to about 1.1 µM and inactive = higher.
Property Label: GI50

O=C1c2ccc3c4ccccc4n(Cc4ccccc4)c3c2C(=O)N1c1ccccc1 : 13.8 µM (inactive)
COc1ccc2oc(=O)cc(C)c2c1 : 88.5 µM (inactive)
Cn1cc2ccccc2c1-c1nc(F)nc(Oc2ccc3c(c2)CC[C@@H]2C3CC[C@@]3(C)C2C[C@H](O)[C@@H]3O)n1 (stereo partly drawn) : 20.5 µM (inactive)
CCCCNC1=C(C(=O)OCC)C(=O)CO1 : 80.2 µM (inactive)
CC(C)=CCc1c2c(c3occ(-c4ccc(O)cc4)c(=O)c3c1O)CC(C(C)(C)O)O2 (stereo not drawn) : 17.8 µM (inactive)
CC(=O)OCC1OC(c2nnc(C)o2)=CC(OC(C)=O)C1OC(C)=O (stereo not drawn) : > 100 µM (inactive)
COc1ccc(/C=C2\S/C(=N/Nc3nc(-c4ccccc4)cs3)NC2=O)cc1OC : 22.8 µM (inactive)

Moving on to another compound below.
Task: Find the recorded GI50 belonging to `CSCC[C@H](NC(=O)[C@H](CC(C)C)NC(=O)[C@@H](Cc1ccccc1)NC(=O)CNC(=O)[C@@H](NC(=O)[C@H](C)NC(=O)[C@H](Cc1c[nH]c2ccccc12)NC(=O)[C@H](CCC(N)=O)NC(=O)[C@H](N)CC(N)=O)C(C)C)C(N)=O` and report it.
Output: > 12.5 µM (inactive)

###

- Tested on: SR
- Protocol Description: NCI tumour cell line growth inhibition, 48 h
Active and inactive are the calls of the source. No stated cut-off is given here; in the data, active = GI50 up to about 1.1 µM and inactive = higher.
// classify into class 1 for active, class 0 for inactive

Worked examples, 4 molecules total:
COC(=O)/C=C(C)/C=C/c1cc(C(C)=O)c(C)o1 : class 0
COc1c(Cl)cc(NC(=S)C#N)cc1Cl : class 0
CC[C@@H]1CC[C@@H]2[C@H](CC[C@]3(C)[C@@H](OS(=O)(=O)c4ccc(C)cc4)CC[C@@H]23)[C@H]1CO : class 0
O=C1CCCCCCCCCCOC(=O)CCCCCCCCCCO1 : class 0

Switching to the query record.
Task: Short answer needed: outcome of this test for `COc1cc2c(c(OC)c1OC)-c1ccc(SC)c(=O)cc1[C@@H](NC(=O)C(F)(F)F)CC2` ?
Output: class 1

###

- System: OVCAR-3
- Protocol Description: NCI tumour cell line growth inhibition, 48 h
The source made the active and inactive calls. Cut-off read from the data, not from the text of the source: active = GI50 up to about 1.1 µM and inactive = higher.
Property Label: GI50

NC(=O)c1ccccc1NC(=O)C(=O)Cc1nc2ccccc2nc1O : > 100 µM (inactive)

Task: Tell me the measured GI50 of COc1cc([C@@H]2OC(=O)C3C2C(=O)O[C@H]3c2ccc(O)c(OC)c2)ccc1O (some centres undefined) , please.
Output: > 100 µM (inactive)

Task: Try the compound CC(C)CC1c2[nH]c3ccccc3c2C[C@H]2C(=O)NC(COC(C)(C)C)C(=O)N12 (some centres undefined)
Output: 3.05 µM (inactive)

Task: Same again, this time with `O=S1(=O)CSc2ccc3ccccc3c2-c2c1ccc1ccccc21`
Output: > 100 µM (inactive)

Task: Subsequent entry: COC(=O)c1c2c(c3[nH]c4ccccc4c3c1C(=O)OC)C(=O)C1=C(C2=O)C2(Cl)C(Cl)C(Cl)C1(Cl)C2(Cl)Cl (centres undefined)
Output: 2.33 µM (inactive)

Task: How about this compound: `O=C(NCCCCCCCCNC(=O)c1cc(-c2ccccc2)nc2ccccc12)c1cc(-c2ccccc2)nc2ccccc12`
Output: > 100 µM (inactive)

Task: Next up: O=C(NC(Cc1c[nH]c2ccccc12)C(=O)Nc1ccc(Br)cc1)OCc1ccccc1 (centres undefined)
Output: 11.6 µM (inactive)

Task: Also check `COc1cccc(/C=C(/C(=O)O)c2cc(OC)c(OC)c(OC)c2)c1`
Output: > 100 µM (inactive)

Task: Try the compound `O=C(Nc1ccc(Cl)cc1)NS(=O)(=O)c1coc2cc(F)ccc2c1=O`
Output: > 100 µM (inactive)

###

- System: MDA-MB-435
- Protocol Description: NCI tumour cell line growth inhibition, 48 h
Activity calls are given as the source filed them. Cut-off read from the data, not from the text of the source: active = GI50 up to about 1.1 µM and inactive = higher.
Property Label: GI50

O=C1C(=Cc2ccccc2O)N=C(c2ccccc2)N1n1c(-c2ccccc2)nc2ccccc2c1=O : 36.8 µM (inactive)

Task: Entry under review: `CCc1nn(CN2CCOCC2)c(=S)n1/N=C/c1ccc(-c2ccc(Cl)cc2)o1` . Reported GI50?
Output: > 100 µM (inactive)

Task: Then Cc1cn(C2C=CC(COP(=O)(OCC3=CC(=O)c4ccccc4C3=O)N(C)CCCCCl)O2)c(=O)[nH]c1=O (centres undefined) ?
Output: 1.94 µM (inactive)

Task: What do you get for `N#CC(CCN1CCC(Nc2ccccc2)(c2nnnn2C2CCCCC2)CC1)(c1ccccc1)c1ccccc1` ?
Output: > 100 µM (inactive)

Task: How about this molecule: `Cc1ccccc1C(O)(c1nccn1C)c1nccn1C`
Output: > 100 µM (inactive)

Task: Try the molecule CC1=CC(O)CC(C)(C)C1/C=C/C(C)=C/C=C/C(C)=C/C=C/C=C(C)/C=C/C=C(C)/C=C/C1=C(C)CC(O)CC1(C)C (centres undefined)
Output: 17.5 µM (inactive)

Task: What would you report for `CC[C@@H]1CC[C@@H]2[C@H](CC[C@]3(C)[C@@H](OS(=O)(=O)c4ccc(C)cc4)CC[C@@H]23)[C@H]1CO` ?
Output: > 100 µM (inactive)

Task: Likewise for COC(=O)/C=C(/C=C1/C(C#N)=C(N)N(c2ccc(Cl)cc2)C1(C)/C(=C\C(=O)OC)C(=O)OC)C(=O)OC (centres undefined) ?
Output: 18.5 µM (inactive)

Task: `CCCC(=O)OCC(COC(=O)CCC)OC(=O)CCC` ?
Output: 85.7 µM (inactive)

Task: Ok, now `O=C1C[C@H](CCC(=O)OCc2ccccc2)NC(=O)C[C@H](CCC(=O)OCc2ccccc2)NC(=O)C[C@H](CCC(=O)OCc2ccccc2)N1`
Output: > 100 µM (inactive)

Task: // same read-out, input: `O=C1Nc2ccccc2/C1=N/NC(=S)N1CCCCC1`
Output: 1.36 µM (inactive)

Task: # repeat for `CC(C)(C)C1=CC(=C(c2ccc(-c3c4nc(c(-c5ccc(C(=C6C=C(C(C)(C)C)C(=O)C(C(C)(C)C)=C6)c6cc(C(C)(C)C)c(O)c(C(C)(C)C)c6)cc5)c5ccc([nH]5)c(-c5ccc(C(=C6C=C(C(C)(C)C)C(=O)C(C(C)(C)C)=C6)c6cc(C(C)(C)C)c(O)c(C(C)(C)C)c6)cc5)c5nc(c(-c6ccc(C(=C7C=C(C(C)(C)C)C(=O)C(C(C)(C)C)=C7)c7cc(C(C)(C)C)c(O)c(C(C)(C)C)c7)cc6)c6ccc3[nH]6)C=C5)C=C4)cc2)c2cc(C(C)(C)C)c(O)c(C(C)(C)C)c2)C=C(C(C)(C)C)C1=O`
Output: > 100 µM (inactive)

Task: Now the same for CC(=O)OCC1OC(n2c(C)c(/N=N/c3ccc(C)cc3)c(C)c(C#N)c2=S)C(OC(C)=O)C(OC(C)=O)C1OC(C)=O (centres undefined)
Output: > 100 µM (inactive)

Task: For COC(=O)C(Cc1ccccc1)NC(=O)CCCNC(=O)OCc1ccccc1 (centres undefined) then?
Output: 86.1 µM (inactive)
